Would you mind telling me the reported EC50 of each entry?
# system tested: human KCNQ2 (Homo sapiens, UniProt O43526)
# experiment summary: 86Rb flux in KCNQ2 expressing cells
# condition: KCNQ2 opening; 86Rb efflux, CHO-K1 cells stably transfected with human KCNQ2
# Procedure: Chinese hamster ovary cells (CHO-K1) were stably transfected with human KCNQ2 inserted into the pCl-neo vector (Promega). Cells were plated at 2×10^5 cells/ml in 96-well plates in 100 μl media (MEM Alpha media, 10% FBS, 1% P/S, 1% L-Glu, and 1 mg/ml G418). At the time of plating the cells were furthermore loaded with 1 μCi/ml 86Rb over-night. […] The supernatant was removed and placed in pony-vials with 0.5 ml scintillation liquid and counted. […]

-- ask Param item = Cc1ncc(C(=O)NCc2ccc3[nH]c(C(F)(F)F)cc3c2)s1 [Compound 66] ; retrieve measured EC50.
-- reply > 50 µM

-- ask Param item = Cc1cc2cc(CNC(=O)c3cnn(C)c3)ccc2[nH]1 [Compound 29] ; retrieve measured EC50.
-- reply > 50 µM

-- ask Param item = O=C(NCc1ccc2[nH]c(C(F)(F)F)cc2c1)c1ncc(C(F)(F)F)cn1 [Compound C1, reference compound] ; retrieve measured EC50.
-- reply > 50 µM

-- ask Param item = COc1ccc(C(=O)NCc2ccc3[nH]c(C)cc3c2)cc1 [Compound C5, reference compound] ; retrieve measured EC50.
-- reply > 50 µM

-- ask Param item = O=C(NCc1ccc2[nH]c(C(F)(F)F)cc2c1)c1ccno1 [Compound 31] ; retrieve measured EC50.
-- reply > 50 µM

-- ask Param item = O=C(NCc1ccc2[nH]c(C(F)(F)F)cc2c1)c1cnn(CC(F)(F)F)c1 [Compound 40] ; retrieve measured EC50.
-- reply > 50 µM

-- ask Param item = O=C(NCc1ccc2[nH]c(C(F)(F)F)cc2c1)c1ccc(-c2ccccc2)nc1 [Compound C2, reference compound] ; retrieve measured EC50.
-- reply > 50 µM

-- ask Param item = Cc1cc2cc(CNC(=O)c3occc3C)ccc2[nH]1 [Compound 1] ; retrieve measured EC50.
-- reply > 50 µM
